tested on: Brain; test: Antioxidant activity in Wistar rat brain homogenates assessed as inhibition of lipid peroxidation at 29 uM by spectrophotometry based TBARS assay relative to untreated control; type: functional, tissue-based
Hi there, I'd appreciate the recorded inhibition for every entry that follows.
Give bare numbers, in %.

• COC(=O)[C@@H](NC1=C(C)C(=O)C(O)=C([C@H](C)CCC=C(C)C)C1=O)C(C)C = 85.5
• COC(=O)[C@H](Cc1c[nH]c2ccccc12)NC1=C(C)C(=O)C(O)=C([C@H](C)CCC=C(C)C)C1=O = 78.7
• CC(C)=CCC[C@@H](C)C1=C(O)C(=O)C(C)=C(NCCc2c[nH]c3ccccc23)C1=O = 96

Then there is this compound:
Answer with the recorded inhibition for the compound listed here: "CCOC(=O)[C@H](CCSC)NC1=C(C)C(=O)C(O)=C([C@H](C)CCC=C(C)C)C1=O"
92.2
